target-entity: phosphoglycerate mutase (Leishmania major)
test-method-notes: qHTS Validation Assay to Find Inhibitors of Phosphoglycerate Mutase (AID 504548);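 further: end-point luminescence from Kinase-GloPlus after the PGAM reaction; on the % scale 0 is the no-effect control and ±100 the full control effect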
condition-label: biochemical enzyme activity; series mostly up to 57.5 µM
Records with an inconclusive call do not appear. Active and inactive are the calls of the source. The call rests on the fitted dose curve; in most records, active means well fitted curve in the direction sought with a large enough effect; inconclusive means small, poorly fitted or top-dose-only effect, or another doubt; inactive means no such curve, though single readings can be large or run the other way.
measured-quantity: outcome

Problem: Can you look up the measured outcome of CN1C2CCC1CC(OC(=O)c1cc(Cl)cc(Cl)c1)C2 (stereo not drawn) for me?
Result: inactive

Problem: Now consider NC(N)=NOCCC(N)C(=O)O (stereo not drawn) .
Result: inactive

Problem: Then CC(Cc1ccc(O)cc1)NCC(O)c1cc(O)cc(O)c1 (stereo not drawn) ?
Result: inactive

Problem: Param item: CC(=O)NCCc1c[nH]c2ccccc12
Result: inactive

Problem: Please give the result for C[C@]12N[C@H](Cc3ccccc31)c1ccccc12 too.
Result: inactive

Problem: What do you have for C#CCOC(=O)C1=CCCN(C)C1 ?
Result: inactive

Further cases:
Problem: Which outcome reading was recorded for the compound CNCCc1c[nH]c2ccc(O)cc12 ?
Result: inactive

Problem: Same question for c1ccc2sc(C3(N4CCCCC4)CCCCC3)cc2c1 please.
Result: inactive

Problem: Then what about the compound CC(C)Oc1cccnc1N(C)C1CCN(Cc2ccccc2)CC1 ?
Result: inactive

Problem: Would you mind doing NC1CC1c1ccccc1 (stereo not drawn) as well?
Result: inactive

* * *

test-method-notes: High-throughput drug toxicity screening in the BPDCN cell line Gen2.2 (AID 1224824);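 further: cells exposed to compounds for 48 h before reading; 100% = DMSO and 0% = bortezomib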
condition-label: Gen2.2 BPDCN cells; at 45.8 µM (top of the series)
Listing of entries alongside the reported cell viability, % of control (lower = more cytotoxic).
Express your answer in %, writing the number without its unit.

Problem: Please report the recorded cell viability, % of control (lower = more cytotoxic) for COc1ccc2c(c1)[C@]13CCCCC1C(C2)N(C)CC3 (stereo not given in full) .
Result: 61.8

Problem: Further, for COC1=C[C@@H]2[C@@H]3Cc4ccc(OC)c(O)c4[C@]2(CCN3C)CC1=O ?
Result: 69.4

Problem: Field entry: CC(=O)Nc1ccc(OC[C@](C)(O)C(=O)Nc2ccc([N+](=O)[O-])c(C(F)(F)F)c2)cc1
Result: 138

---
Problem: Quick one: cell viability, % of control (lower = more cytotoxic) of O=C(Oc1ccc([N+](=O)[O-])cc1)N1CCC(C(O)(c2ccc3c(c2)OCO3)c2ccc3c(c2)OCO3)CC1 ?
Result: 40.5

Problem: How about COCC1(CO)C(=O)C2CCN1CC2 (stereo not given) ?
Result: 4.6

Problem: Next molecule: O=C1C=CC[C@@H]2[C@H]3CCCN4CCC[C@@H](CN12)[C@@H]34
Result: 126

Problem: And then C[C@]12CC[C@H]3[C@@H](CCC4=CC(=O)CC[C@@]43C)[C@H]1CC[C@H]2OC(=O)CCC1CCCC1 , what is it?
Result: 94

Problem: Proceed to Cc1c(C(=O)Nc2cccc(C(F)(F)F)c2)cc(-c2ccccc2)n1CCCN1CCOCC1
Result: 52.7

Problem: # repeat for CCOC(=O)c1cncn1[C@H](C)c1ccccc1
Result: 124

Problem: And what about the molecule CC(C)(C)c1cc(C=C(C#N)C#N)cc(Br)c1O ?
Result: 12.6

Problem: Field entry: O=c1[nH]c2ccccc2n1C1CCN(Cc2ccc(-c3[nH]c4cc5ncnc5cc4nc3-c3ccccc3)cc2)CC1
Result: 4.84

Problem: What about CC(C)(C)[C@]1(O)C[C@@H]2OC(=O)C[C@@]23C(=O)O[C@@H]2OC(=O)[C@H](O)C213 (stereo not given in full) ?
Result: 106

Problem: Then O=C(Nc1ccncc1)C(=O)c1cn(Cc2ccc(Cl)cc2)c2ccccc12 ?
Result: 73.9

Problem: Next: CCc1c(C(=O)C(N)=O)c2c(OCC(=O)O)cccc2n1Cc1ccccc1
Result: 114

Problem: Subsequent entry: CC(C)[C@]12O[C@@H]1[C@@H]1O[C@]13[C@]1(O[C@H]1C[C@@H]1C4=C(CC[C@@]13C)C(=O)OC4)[C@H]2O
Result: 4.5

Problem: Repeat for the following molecule: C[C@]12CC[C@H](O)CC1=CC[C@H]1[C@H]3CCC(=O)[C@@]3(C)CC[C@@H]12
Result: 136

Problem: Do the same for C[C@]12CC[C@@H]3[C@@H](CCC4=CC(=O)CC[C@@H]43)[C@@H]1CC[C@@H]2OC(=O)CCc1ccccc1 please
Result: 119

Problem: Proceed to COc1ccc(C(=O)c2c(C)n(CCN3CCOCC3)c3cc(I)ccc23)cc1
Result: 4.27

Problem: Try this molecule too: CN(C)[C@@H]1C(=O)C(C(N)=O)=C(O)[C@@]2(O)C(=O)C3=C(O)c4c(O)cccc4[C@@](C)(O)[C@H]3[C@H](O)[C@@H]12
Result: 109

Problem: Cool, now C[C@H]([C@H](O)CCC(C)(C)O)[C@H]1CC[C@@]2(O)C3=CC(=O)[C@@H]4C[C@@H](O)[C@@H](O)C[C@]4(C)[C@@H]3CC[C@]12C
Result: 127
